Tested on: opto-α-syn SH-SY5Y cells
Assay: OASIS-based high-content imaging assay of light-induced α-syn aggregation (5G4 staining, Aggregates Induction Score)
Assay type: cell-based, human
Settings: validation of 19 hits, 24-well plates, blue light; AIS normalized to positive control (blue light, DMSO) set as 1.0
value type: AIS, aggregates induction score
// return a plain number; no unit text

Past entries and their recorded results:
[[record]]
compound = "C[C@@H]1C[C@H]2[C@@H]3CCC4=CC(=O)C=C[C@]4(C)[C@@]3(F)[C@@H](O)C[C@]2(C)[C@@]1(O)C(=O)CO"
data_value = 0.74

[[record]]
compound = "CC(C)c1ccc2oc3nc(N)c(C(=O)O)cc3c(=O)c2c1"
data_value = 0.53

[[record]]
compound = "O=C1CCc2cc(OCCCCc3nnnn3C3CCCCC3)ccc2N1"
data_value = 0.65

[[record]]
compound = "CCCN(CCC)CCc1ccc(OC)c(OCCc2ccccc2)c1.Cl [NE 100 hydrochloride]"
data_value = 0.53

[[record]]
compound = "Cc1nc2cnc3ccc(C#Cc4cccnc4)cc3c2n1-c1ccc(C(C)(C)C#N)cc1"
data_value = 0.34

[[record]]
compound = "COc1c(C)c2c(c(O)c1C/C=C(\\C)CCC(=O)O)C(=O)OC2"
data_value = 0.57


Return the recorded AIS, aggregates induction score value; entry: `CCOC(=O)c1ccc(N(C)c2csc(-c3ccccc3)n2)cc1` 0.73

Return the recorded AIS, aggregates induction score value; entry: COc1cc2nc(N3CCC(N4CCCCC4)CC3)nc(NC3CCCCCC3)c2cc1OC.Cl.Cl [C 021 dihydrochloride] 0.19

----------
Tested on: opto-α-syn SH-SY5Y cells
Assay: OASIS-based high-content imaging assay of light-induced α-syn aggregation (5G4 staining, Aggregates Induction Score)
Format: cell-based, human
Settings: validation of 19 hits, 24-well plates, blue light; AIS normalized to positive control (blue light, DMSO) set as 1.0
Examples of compounds with documented AIS, aggregates induction score follow.
// return a plain number; no unit text

[[record]]
compound = "CC(=O)c1cc2c(o1)C(=O)c1ccccc1C2=O [Napabucasin]"
data_value = 0.97

[[record]]
compound = "NS(=O)(=O)c1cc2c(cc1Cl)NC(C1CC3C=CC1C3)NS2(=O)=O (centres unmarked) [Cyclothiazide]"
data_value = 0.68

[[record]]
compound = "COc1c(C)c2c(c(O)c1C/C=C(\\C)CCC(=O)OCCN1CCOCC1)C(=O)OC2 [Mycophenolate mofetil]"
data_value = 0.71

[[record]]
compound = "O=C(O)c1ccccc1C(=O)Nc1ccc(-c2ccccc2)cc1 [Kartogenin]"
data_value = 0.98


Proceed to the following item.
State AIS, aggregates induction score (opto-α-syn SH-SY5Y cells) of CCCCCCCCCCC(C)(C)C(=O)Nc1c(OC)cc(OC)cc1OC [Compound C1976, CI 976] . 0.63

----------
Test system: opto-α-syn SH-SY5Y cells
Experiment: OASIS-based high-content imaging assay of light-induced α-syn aggregation (5G4 staining, Aggregates Induction Score)
Type: cell-based, human
Conditions: validation of 19 hits, 24-well plates, blue light; AIS normalized to positive control (blue light, DMSO) set as 1.0
# if value of AIS, aggregates induction score reaches 0.4, tag 1; if it stays below, tag -1

Observe how each entry below is paired with its result.
[[record]]
compound = "CC1(C)C(=O)N=C2C1=C(O)C(=O)c1ccccc12"
qualitative_label = -1

[[record]]
compound = "Cc1cc(Nc2nc(N[C@@H](C)c3ncc(F)cn3)ncc2Cl)n[nH]1"
qualitative_label = -1

[[record]]
compound = "O=C1NC(=O)c2c1c1c3ccccc3[nH]c1c1[nH]c3ccccc3c21"
qualitative_label = -1

[[record]]
compound = "CN(C)CCc1c[nH]c2ccc(Cn3cncn3)cc12 [Rizatriptan benzoate]"
qualitative_label = 1


Reported AIS, aggregates induction score at or above 0.4? `CCc1c(C(=O)Nc2cc(S(=O)(=O)N(CC)CC)ccc2O)[nH]c(C)c1C(C)=O` 1
